# target: mAhR (Mus musculus, UniProt P30561)
# Construct: made in house; host or cells: in vitro transcription/translation (rabbit reticulocyte lysate)
# Sequence (P30561 10-848): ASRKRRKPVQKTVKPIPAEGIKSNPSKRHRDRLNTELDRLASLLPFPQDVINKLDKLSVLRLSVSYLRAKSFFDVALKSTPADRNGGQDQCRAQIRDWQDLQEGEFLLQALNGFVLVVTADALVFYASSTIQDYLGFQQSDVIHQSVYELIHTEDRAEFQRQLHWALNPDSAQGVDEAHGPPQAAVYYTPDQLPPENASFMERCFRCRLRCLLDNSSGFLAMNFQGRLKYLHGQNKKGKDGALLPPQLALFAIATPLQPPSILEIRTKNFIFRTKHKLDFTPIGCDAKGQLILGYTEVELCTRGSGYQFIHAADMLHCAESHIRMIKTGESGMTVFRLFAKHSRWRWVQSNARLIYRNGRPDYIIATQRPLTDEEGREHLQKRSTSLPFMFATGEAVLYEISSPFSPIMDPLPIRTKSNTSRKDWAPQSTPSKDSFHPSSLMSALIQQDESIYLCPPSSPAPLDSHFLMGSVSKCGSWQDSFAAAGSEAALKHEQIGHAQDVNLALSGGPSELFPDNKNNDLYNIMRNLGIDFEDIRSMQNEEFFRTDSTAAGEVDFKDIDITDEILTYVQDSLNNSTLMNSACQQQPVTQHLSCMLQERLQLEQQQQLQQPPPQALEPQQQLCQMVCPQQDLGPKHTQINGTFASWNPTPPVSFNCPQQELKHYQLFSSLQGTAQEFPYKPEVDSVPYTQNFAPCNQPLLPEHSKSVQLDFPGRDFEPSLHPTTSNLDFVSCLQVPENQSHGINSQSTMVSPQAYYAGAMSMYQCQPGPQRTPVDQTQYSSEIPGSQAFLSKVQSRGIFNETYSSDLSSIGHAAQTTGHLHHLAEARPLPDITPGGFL
# Sequence (P53762 whole entry partner): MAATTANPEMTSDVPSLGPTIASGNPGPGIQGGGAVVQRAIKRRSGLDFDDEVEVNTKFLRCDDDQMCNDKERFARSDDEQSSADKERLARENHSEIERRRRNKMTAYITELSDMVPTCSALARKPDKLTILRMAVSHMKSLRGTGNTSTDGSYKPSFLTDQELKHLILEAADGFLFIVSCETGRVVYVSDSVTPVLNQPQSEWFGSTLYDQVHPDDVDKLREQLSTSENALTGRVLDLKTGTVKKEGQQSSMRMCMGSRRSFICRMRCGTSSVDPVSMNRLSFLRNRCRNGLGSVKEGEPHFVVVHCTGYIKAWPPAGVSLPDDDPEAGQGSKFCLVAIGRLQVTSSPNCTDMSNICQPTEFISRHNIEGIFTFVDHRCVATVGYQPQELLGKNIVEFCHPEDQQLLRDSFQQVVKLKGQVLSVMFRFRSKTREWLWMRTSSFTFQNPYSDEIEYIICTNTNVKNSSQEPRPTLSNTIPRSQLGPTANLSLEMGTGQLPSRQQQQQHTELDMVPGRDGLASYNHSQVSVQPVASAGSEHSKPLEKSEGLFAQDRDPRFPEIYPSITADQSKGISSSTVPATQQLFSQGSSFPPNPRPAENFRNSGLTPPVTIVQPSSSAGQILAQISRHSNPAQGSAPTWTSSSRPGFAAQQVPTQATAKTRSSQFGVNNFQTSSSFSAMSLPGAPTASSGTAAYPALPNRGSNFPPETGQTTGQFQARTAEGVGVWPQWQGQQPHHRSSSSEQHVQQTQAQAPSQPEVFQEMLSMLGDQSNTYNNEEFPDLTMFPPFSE
# experimentSummary: biochemical
# studyConditions: gel retardation, wild-type mAhR; values in text; read-out: relative potency to stimulate AhR DNA binding in vitro (EC50)
recordedEndpoint: EC50 (nM)
Numeric answer only, unit nM assumed.

Reference set (4 entries):
{"columns": ["compound", "target", "resultValue"],
 "data": [
  ["O=Cc1c2[nH]c3ccccc3c2cc2[nH]c3ccccc3c12 [FICZ, 6-formylindolo[3,2-b]carbazole]", "mAhR (Mus musculus, UniProt P30561)", 4.25],
  ["Clc1cc2oc3cc(Cl)c(Cl)cc3c2cc1Cl", "mAhR (Mus musculus, UniProt P30561)", 4.5],
  ["c1ccc2c(c1)cc1ccc3cccc4ccc2c1c34", "mAhR (Mus musculus, UniProt P30561)", 39],
  ["O=c1cc(-c2ccccc2)oc2ccc3ccccc3c12", "mAhR (Mus musculus, UniProt P30561)", 138]
]}

Entry under review: "Clc1ccc(-c2cc(Cl)c(Cl)c(Cl)c2)cc1Cl" . Reported EC50?
6.5

----------
# target: S359A mutant AhR (Mus musculus, UniProt P30561, S359A)
# Sequence (P30561 10-848 S359A): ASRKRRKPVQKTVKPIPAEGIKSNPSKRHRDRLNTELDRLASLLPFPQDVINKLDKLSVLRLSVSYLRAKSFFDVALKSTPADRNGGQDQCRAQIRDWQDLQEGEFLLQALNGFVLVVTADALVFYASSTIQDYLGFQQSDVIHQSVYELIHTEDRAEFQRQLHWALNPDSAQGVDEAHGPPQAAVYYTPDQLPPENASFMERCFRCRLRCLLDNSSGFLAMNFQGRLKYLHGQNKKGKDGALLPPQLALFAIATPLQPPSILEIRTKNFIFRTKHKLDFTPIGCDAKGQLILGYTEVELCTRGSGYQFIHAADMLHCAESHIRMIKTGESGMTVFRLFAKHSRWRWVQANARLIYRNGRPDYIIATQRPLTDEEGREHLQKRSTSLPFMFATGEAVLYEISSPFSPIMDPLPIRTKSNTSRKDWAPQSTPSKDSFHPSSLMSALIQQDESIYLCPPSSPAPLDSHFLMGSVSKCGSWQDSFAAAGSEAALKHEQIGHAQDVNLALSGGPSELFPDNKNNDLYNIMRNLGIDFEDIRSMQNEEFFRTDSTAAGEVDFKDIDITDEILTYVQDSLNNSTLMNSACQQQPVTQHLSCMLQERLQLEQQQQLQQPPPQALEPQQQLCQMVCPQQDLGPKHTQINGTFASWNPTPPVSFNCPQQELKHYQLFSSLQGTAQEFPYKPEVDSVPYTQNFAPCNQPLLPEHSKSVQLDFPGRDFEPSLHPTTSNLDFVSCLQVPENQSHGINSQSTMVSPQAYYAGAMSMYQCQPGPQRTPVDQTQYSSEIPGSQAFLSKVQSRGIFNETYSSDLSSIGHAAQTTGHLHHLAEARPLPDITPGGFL
# experimentSummary: [3H]TCDD competitive ligand binding, S359A mutant AhR
# studyConditions: Table S6; AhR mutant S359A
Listed compounds paired with reported pIC50
In textbook form, pIC50 equals minus log to base ten of the concentration in mol/L.

{"columns": ["compound", "target", "pIC50"],
 "data": [
  ["O=c1cc(-c2ccccc2)oc2ccc3ccccc3c12", "S359A mutant AhR (Mus musculus, UniProt P30561, S359A)", 7.33]
]}

Next item in the queue.
Form: Entry = O=Cc1c2[nH]c3ccccc3c2cc2[nH]c3ccccc3c12 [FICZ, 6-formylindolo[3,2-b]carbazole] | System = S359A mutant AhR (Mus musculus, UniProt P30561, S359A) | pIC50 = ____
8.39

----------
Listed compounds paired with reported pIC50
# target: M334A mutant AhR (Mus musculus, UniProt P30561, M334A)
# Sequence (P30561 10-848 M334A): as the sequence (P30561 10-848 S359A) above, with M325A, A350S counted along it
# experimentSummary: [3H]TCDD competitive ligand binding, M334A mutant AhR
# studyConditions: Table S6; AhR mutant M334A
In textbook form, pIC50 equals minus log to base ten of the concentration in mol/L.

{"columns": ["smilesRepr", "target", "pIC50"],
 "data": [
  ["Cc1ccc2cc3c(ccc4ccccc43)c3c2c1CC3", "M334A mutant AhR (Mus musculus, UniProt P30561, M334A)", 7.46],
  ["c1ccc2c(c1)ccc1cc3c(ccc4ccccc43)cc12", "M334A mutant AhR (Mus musculus, UniProt P30561, M334A)", 8.13]
]}

Entry under review: "Clc1ccc(-c2cc(Cl)c(Cl)c(Cl)c2)cc1Cl" . Reported pIC50?
7.13

----------
Listed molecules paired with reported pIC50
# target: M342A mutant AhR (Mus musculus, UniProt P30561, M342A)
# Sequence (P30561 10-848 M342A): as the sequence (P30561 10-848 S359A) above, with M333A, A350S counted along it
# experimentSummary: [3H]TCDD competitive ligand binding, M342A mutant AhR
# studyConditions: Table S6; AhR mutant M342A
In textbook form, pIC50 equals minus log to base ten of the concentration in mol/L.

Reference set (2 entries):
{"columns": ["molecule", "target", "pIC50"],
 "data": [
  ["O=c1cc(-c2ccccc2)oc2ccc3ccccc3c12 [BNF]", "M342A mutant AhR (Mus musculus, UniProt P30561, M342A)", 8.02],
  ["Cc1ccc2cc3c(ccc4ccccc43)c3c2c1CC3 [3MC, 3-methylcholanthrene]", "M342A mutant AhR (Mus musculus, UniProt P30561, M342A)", 6.61]
]}

Next item in the queue.
Entry under review: O=Cc1c2[nH]c3ccccc3c2cc2[nH]c3ccccc3c12 [FICZ, 6-formylindolo[3,2-b]carbazole] . Reported pIC50?
10.68
